procedure text: Therapeutic index, ratio of IC50 for mouse RAW264.7 cells to IC50 for mefloquine-resistant Plasmodium falciparum CDC Sierra Leone 1 D6
Type: cell-based
assay conditions: read-out: TI
measured metric: selectivity ratio

COc1cc(NC(C)CCCNC(=O)OC(C)(C)C)c2nc(C(F)(F)F)cc(C)c2c1-c1cccc(C(F)(F)F)c1 (centres undefined)
> 39.7
COc1cc(NC(C)CCCNC(=O)OC(C)(C)C)c2nc(C(F)(F)F)cc(C)c2c1-c1ccc(C(F)(F)F)cc1 (centres undefined)
> 36
COc1cccc(-c2c(OC)cc(NC(C)CCCNC(=O)OC(C)(C)C)c3nc(C(F)(F)F)cc(C)c23)c1 (centres undefined)
> 267

// below: selectivity ratio requested for another molecule
Problem: Entry COc1cc(NC(C)CCCNC(=O)OC(C)(C)C)c2nc(C(F)(F)F)cc(C)c2c1-c1cccc(C)c1 (centres undefined) : reported selectivity ratio = ?
Result: > 240
